Entry source: patent US12590123B2

- target: UniProt:P00742
- Sequence (P00742 235-488 limits assumed): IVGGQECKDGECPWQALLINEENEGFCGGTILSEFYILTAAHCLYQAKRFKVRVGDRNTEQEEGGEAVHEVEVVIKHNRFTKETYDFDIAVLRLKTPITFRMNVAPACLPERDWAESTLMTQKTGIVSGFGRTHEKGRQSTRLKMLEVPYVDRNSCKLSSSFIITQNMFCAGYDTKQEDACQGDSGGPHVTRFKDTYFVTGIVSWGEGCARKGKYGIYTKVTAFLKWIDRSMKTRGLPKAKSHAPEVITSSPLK
- Sequence (P00742 41-179 partner limits assumed): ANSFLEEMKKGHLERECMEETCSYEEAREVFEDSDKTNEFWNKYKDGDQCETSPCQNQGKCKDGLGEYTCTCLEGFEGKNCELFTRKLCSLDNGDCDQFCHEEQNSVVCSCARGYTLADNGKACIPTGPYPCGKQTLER
- assay-protocol: Chromogenic kinetic enzyme assay of Factor Xa (S2222)
- Type: biochemical
- condition-details: Table 2; chromogenic assay; read-out: Factor Xa* (IC50 nM)
Starred links: 1 amine or outer side, 2 acyl side, 3 side chain; linkers in the order of their positions; H or OH if unused. Positions of bridges follow the written chain, without caps; N, C: chain ends. Non-standard residues stand in square brackets, D forms with d. Residues, ends and D or L forms follow the SMILES beside them. X6 = N=C(N)NCCC[C@H](N[*:1])C(=O)c1nc2ccc(C(=O)[*:2])cc2s1
// assign Met if IC50 falls strictly below 1000 nM, else Not met (ties count as Not met)

{"columns": ["compound", "target", "cat"],
 "data": [
  ["CC(=O)N[C@H]1CC(=O)NCCCC[C@@H](C(=O)N[C@@H](CCCNC(=N)N)C(=O)c2nc3ccccc3s2)NC(=O)[C@H]([C@H](C)O)NC1=O", "UniProt:P00742", "Not met"],
  ["CC(=O)N[C@H]1C/C=C\\COc2ccc(cc2)C[C@@H](C(=O)N[C@@H](CCCNC(=N)N)C(=O)c2nc3ccccc3s2)NC(=O)[C@H](CC(C)C)NC1=O", "UniProt:P00742", "Not met"],
  ["CC(=O)N[C@H]1Cc2ccc(cc2)OCCCC[C@@H](C(=O)N[C@@H](CCCNC(=N)N)C(=O)c2nc3ccccc3s2)NC(=O)[C@@H](Cc2c[nH]c3ccccc23)NC1=O [VD4162B]", "UniProt:P00742", "Not met"],
  ["CC(=O)N[C@H]1CC(=O)NCCCC[C@@H](C(=O)N[C@@H](CCCNC(=N)N)C(=O)c2nc3ccccc3s2)NC(=O)CNC1=O", "UniProt:P00742", "Not met"],
  ["CC(=O)N[C@H]1CC(=O)N(C)CCCC[C@@H](C(=O)N[C@@H](CCCNC(=N)N)C(=O)c2nc3ccccc3s2)NC(=O)[C@H](CC(C)C)NC1=O [VD4192C1]", "UniProt:P00742", "Not met"],
  ["CC(=O)N[C@H]1CC(=O)NCCCC[C@@H](C(=O)N[C@@H](CCCNC(=N)N)C(=O)c2nc3ccccc3s2)NC(=O)[C@H](Cc2ccc(O)cc2)NC1=O", "UniProt:P00742", "Not met"],
  ["CC(C)C[C@@H]1NC(=O)[C@@H](N)CC(=O)NCCCC[C@@H](C(=O)N[C@@H](CCCNC(=N)N)C(=O)c2nc3ccccc3s2)NC1=O", "UniProt:P00742", "Not met"],
  ["CC(=O)N[C@H]1Cc2ccc(cc2)OC/C=C\\CNC(=O)CC[C@@H](C(=O)N[C@@H](CCCNC(=N)N)C(=O)c2nc3ccccc3s2)NC(=O)[C@H](CC(C)C)NC1=O", "UniProt:P00742", "Not met"],
  ["CC(=O)N[C@H]1Cc2ccc(cc2)OC/C=C\\C[C@@H](C(=O)N[C@@H](CCCNC(=N)N)C(=O)c2nc3ccccc3s2)NC(=O)[C@H](CC(C)C)NC1=O", "UniProt:P00742", "Met"],
  ["CC(=O)N[C@H]1CC(=O)NCCCC[C@@H](C(=O)N[C@@H](CCCNC(=N)N)C(=O)c2nc3ccc(C(=O)N[C@@H](C(N)=O)C(C)C)cc3s2)NC(=O)[C@H](CC(C)C)NC1=O [VD3056] (Ac-DLK[X6][dV]-NH2; lactam 1-3)", "UniProt:P00742", "Met"],
  ["CC(=O)N[C@H]1CCCCNC(=O)C[C@@H](C(=O)N[C@@H](CCCNC(=N)N)C(=O)c2nc3ccccc3s2)NC(=O)[C@H](CC(C)C)NC1=O", "UniProt:P00742", "Not met"]
]}
